Test system: HCC2429
EXPERIMENTAL_DETAILS: Antiproliferative activity against human HCC2429 cells for 72 hrs incubation measured by Celltiter Glo Cell Viability assay
Type: functional, cell-based
MEASUREMENT_SETUP: HCC2429, 72 h

COMPOUND | IC50, nM
CNC(=O)Nc1ccc2c(c1)CC[C@@]21OC(=O)N(CC(=O)N(Cc2ccc(F)cc2)[C@@H](C)C(F)(F)F)C1=O [A-485] | 750
